Reported GI50 values for the following compounds.
System: SR
PROTOCOL_DESCRIPTION: NCI tumour cell line growth inhibition, 48 h
Active and inactive are the calls of the source. No stated cut-off is given here; in the data, active = GI50 up to about 1.1 µM and inactive = higher.

Worked examples follow.
INSERT INTO results (compound, measured_metric, recorded_measurement) VALUES
  ('CCC1(O)C(=O)OCc2c1cc1n(c2=O)Cc2cc3cc(N)ccc3nc2-1 (stereo unspecified)', 'GI50', '< 0.01 µM (active)'),
  ('O=C1c2cccc(O)c2C(=O)c2c(O)cccc21 [DANTHRON]', 'GI50', '43.3 µM (inactive)'),
  ('CSC12c3cc(C)n(-c4ccccc4)c3CC(C)(C)CN1C(=O)C2Oc1ccccc1 (stereo unspecified)', 'GI50', '11.3 µM (inactive)');

Q: Give the measured GI50 of COc1cc([C@@H]2c3cc4c(cc3[C@H](O)[C@H]3COC(=O)[C@H]23)OCO4)cc(OC)c1OC [PODOFILOX] .
Result: < 0.005 µM (active)

Q: Now this one: `O=C(OCCN=C1c2ccccc2CCc2ccccc21)c1cc([N+](=O)[O-])cc([N+](=O)[O-])c1`
Result: 3.52 µM (inactive)

Q: Record: `CCCCNS(=O)(=O)c1ccc(-c2ccc3c(c2)-c2ccc(S(=O)(=O)NCCCC)cc2S3(=O)=O)cc1`
Result: 72.1 µM (inactive)

----------
System: SK-MEL-5
PROTOCOL_DESCRIPTION: NCI tumour cell line growth inhibition, 48 h
The source made the active and inactive calls. No stated cut-off is given here; in the data, active = GI50 up to about 1.1 µM and inactive = higher.
Bench note: report the call from 1 (yes) = active, 0 (no) = inactive

INSERT INTO assay_data (compound, answer_label) VALUES
  ('C=CCO/N=C/c1cc(/N=C(/S)c2ccoc2C)ccc1Cl', '0 (no)'),
  ('COc1ccc2nc3c4c(nccc4c2c1)-c1ncccc1C3=O', '1 (yes)'),
  ('COC(=O)[C@@H](NC(=O)N(CCC#N)CCCN(C(=O)N[C@H](Cc1ccccc1)C(=O)OC)c1ccccc1)C(C)C', '0 (no)'),
  ('N#C/C(=C\c1cn(Cc2ccccc2)c2ccccc12)c1nn(-c2ccccc2)c(N)c1C#N', '0 (no)'),
  ('CC(C)NCCC(O)c1cc2ccccc2o1 (stereo not drawn)', '0 (no)');

Q: Test call for this compound, please: `Cc1c(C(=O)c2ccc(N)c3ccccc23)c2ccccc2n1CCN1CCOCC1`
Result: 0 (no)

Q: Again, but for `C/C=C(/C)C(=O)O[C@H]1[C@H]2[C@@H]([C@@H](OC(C)=O)[C@H](C)C(=O)[C@@]34C[C@@H](C)C(=O)[C@]3(/C=C(\C)[C@H]1OC(C)=O)O4)C2(C)C`
Result: 0 (no)

Q: Consider next the compound COC(=O)C1=C(C(=O)OC)C23C=CC=CC24C(C(=O)OC)=C(C(=O)OC)C4C1C3 (stereo not drawn) in the same way.
Result: 0 (no)

Q: Do the same for `Cc1cc(-c2nc3c(F)cccc3s2)ccc1N` please
Result: 0 (no)

Q: // next record `CN(C)c1ccc(/C=C/C(=O)CC(=O)/C=C/c2ccc(N(C)C)cc2)cc1`
Result: 0 (no)

Q: Also, `CC1(C)C(=S)C(C)(C)C1=S` please.
Result: 0 (no)

Q: What would you report for `COc1ccccc1NC(=S)NNC(=O)c1cc(-c2ccccc2)nc2ccccc12` ?
Result: 0 (no)

Q: Then `CNS(=O)(=O)NN(C)S(=O)(=O)c1ccc2ccccc2c1` ?
Result: 0 (no)

----------
In this section we review reported GI50 values for a set of compounds.
System: UO-31
PROTOCOL_DESCRIPTION: NCI tumour cell line growth inhibition, 48 h
Active and inactive are the calls of the source. Rule as the data show it: active = GI50 up to about 1.1 µM and inactive = higher.

Examples with answers:
INSERT INTO assay_data (compound, recorded_measurement) VALUES
  ('CC[C@@]1(C)CCC2c3ccc(O)cc3CC[C@H]2C1C (some centres not stated)', '16.7 µM (inactive)'),
  ('O=C(Nc1nc(C23CC4CC(CC(C4)C2)C3)cs1)c1c(O)c2ccccc2[nH]c1=O', '> 100 µM (inactive)'),
  ('CCOC(=O)C1C(=O)CC(C)(O)C(C(=O)OCC)C1c1ccc(N(C)C)cc1 (configuration not stated)', '> 100 µM (inactive)'),
  ('O=C1C(Nc2ccc(S(=O)(=O)Nc3cnc4ccccc4n3)cc2)=C/C(=N\c2ccc(S(=O)(=O)Nc3cnc4ccccc4n3)cc2)c2ccccc21', '15.6 µM (inactive)');

Q: Dear colleague, I am looking for the recorded GI50 of the following compound: C[N+](C)(C)CCN[N+]1(C)CCCc2ccccc21 (configuration not stated)
Result: > 100 µM (inactive)

Q: Let us now turn to [N-]=[N+]=NCC(O)Cn1cnc2c(NC(=O)c3ccccc3)ncnc21 (configuration not stated)
Result: > 100 µM (inactive)

Q: Next up: `COc1c(Sc2ccccc2)cc(Sc2ccccc2)c2cccnc12`
Result: 19.1 µM (inactive)

----------
System: Malme-3M
PROTOCOL_DESCRIPTION: NCI tumour cell line growth inhibition, 48 h
Calls of active or inactive are those of the source. Cut-off read from the data, not from the text of the source: active = GI50 up to about 1.1 µM and inactive = higher.
One label from this list, please: active, inactive

See these solved cases before continuing.
INSERT INTO assay_data (molecule, answer_label) VALUES
  ('COc1cccc(-c2cc(O)c3cc4c(cc3n2)OCO4)c1', 'active'),
  ('Cc1ccccc1-n1c(=O)sc2c(=O)n(-c3ccccc3)c(=S)[nH]c21', 'inactive');

Consider the record given below.
Q: For Cc1cc(O)ccc1C1(c2ccc(F)cc2)OC(=O)c2ccccc21 (stereo not drawn) , what call appears in the results of this test?
Result: inactive

----------
Test system: SK-MEL-2
PROTOCOL_DESCRIPTION: NCI tumour cell line growth inhibition, 48 h
Active and inactive are the calls of the source. Cut-off read from the data, not from the text of the source: active = GI50 up to about 1.1 µM and inactive = higher.
Output constraint: value belongs to label 1 = active, label 0 = inactive

Consider the following illustrative entries.
INSERT INTO assay_data (molecule, answer_label) VALUES
  ('C#CC1(O)CCCCCCCCC2(CCCCCCCC1)OCCO2', 'label 0'),
  ('O=C1c2ccc(O)c(O)c2C(=O)c2c(O)ccc(O)c21', 'label 0'),
  ('CS(=O)(=O)c1ccc(C2=C(c3ccccc3)C(=O)OC2)cc1', 'label 0'),
  ('COc1cc2c(/C=C3/C(=O)N(C)c4ccc(O)cc43)c(Cl)[nH]c2cc1C', 'label 1'),
  ('CC(C)(C)OC(=O)N[C@H]1CC2(C=C(Cl)C(=O)C(Cl)=C2)OC1=O', 'label 0');

Q: So what was the verdict on `CCOC(=O)c1cn2c([nH]c3ccccc32)c(C#N)c1=O` in this test?
Result: label 0

Q: Also need `C[N+](C)(C)CCOC(=O)/C=C/c1c[nH]cn1` , thanks.
Result: label 0

----------
Test system: SF-295
PROTOCOL_DESCRIPTION: NCI tumour cell line growth inhibition, 48 h
The source made the active and inactive calls. No stated cut-off is given here; in the data, active = GI50 up to about 1.1 µM and inactive = higher.
MEASURED_METRIC: GI50

INSERT INTO results (compound, recorded_measurement) VALUES
  ('CCOC(=O)NC(=O)c1cn(C2OC(CO)C(O)C2O)c(=O)[nH]c1=O (stereo not given)', '> 100 µM (inactive)');

Q: Sample CC1(C)NC(C(=O)c2ccccc2)=[N+]([O-])C1(O)c1ccccc1 (stereo not given) — what was its GI50?
Result: > 100 µM (inactive)

Q: Subsequent entry: `O=C1c2ccccc2-c2nc(-c3cccs3)cc3c2c1nc1ccccc13`
Result: 27.8 µM (inactive)

Q: Next record, please: `COc1cc(OC)cc(Oc2nc3ccccc3nc2C(=O)O)c1`
Result: > 100 µM (inactive)

Q: What would you report for `O=C(OCCN=C1c2ccccc2CCc2ccccc21)c1cc([N+](=O)[O-])cc([N+](=O)[O-])c1` ?
Result: 23.6 µM (inactive)

----------
Tested on: UO-31
PROTOCOL_DESCRIPTION: NCI tumour cell line growth inhibition, 48 h
The source made the active and inactive calls. Cut-off read from the data, not from the text of the source: active = GI50 up to about 1.1 µM and inactive = higher.
MEASURED_METRIC: GI50

Known GI50 results, listed for orientation:
INSERT INTO measurements (molecule, recorded_measurement) VALUES
  ('COC(=O)C(=O)C(C(=O)C(=O)Nc1ccc(OC)cc1[N+](=O)[O-])c1nc2ccc([N+](=O)[O-])cc2nc1O (stereo not given)', '> 100 µM (inactive)'),
  ('CCOC(=O)C(C(=O)c1ccccc1C(=O)OC)=P(c1ccccc1)(c1ccccc1)c1ccccc1', '> 10 µM (inactive)'),
  ('CC1(C)NC(C(=O)c2ccccc2)=[N+]([O-])C1(O)c1ccccc1 (stereo not given)', '69.8 µM (inactive)'),
  ('COC(=O)c1ccccc1CC(Cc1ccccc1)C(=O)OC (stereo not given)', '39.1 µM (inactive)'),
  ('C[C@]12C(=O)OC[C@H](c3ccccc3)N1C(=O)N(Cc1ccccc1)[C@@H]2CO', '> 100 µM (inactive)');

Q: Could you share which GI50 value was measured for `CCOc1ccc(NC(=S)N/C=C(/C(C)=O)C(=O)Nc2ccccc2C)cc1` ?
Result: > 100 µM (inactive)

Sourced from ChEMBL document CHEMBL1201862
